# Tested on: Capan-2 cells (KRAS G12V)
# Experimental details: Cell-based pERK HTRF assay in Capan-2 cells (Biological Example 5)
# Stated conditions: Homo sapiens, Capan-2, Capan-2 (KRAS G12V) cells
pIC50: −log10 of the molar value.

Compound: CCN(c1nc(OC[C@@]23CCCN2C[C@H](F)C3)nc2c(F)c(-c3ccc(F)c4sc(N)c(C#N)c34)c(C(F)(F)F)cc12)[C@H]1C[C@H](COC)N(C(=O)C2CC2)C1 (atropisomer, axis not shown) [Compound 696]
pIC50: ≥ 7.00
//
Compound: N#Cc1c(N)sc2c(F)ccc(-c3c(C(F)(F)F)cc4c(N5CCOCC5)nc(OC[C@@]56CCCN5C[C@H](F)C6)nc4c3F)c12 (single isomer, unassigned) [Compound 198]
pIC50: ≥ 7.00
//
Compound: N#Cc1cnn2c1CN(c1nc(OC[C@@]34CCCN3C[C@H](F)C4)nc3c(F)c(-c4ccc(F)c5sc(N)c(C#N)c45)c(C(F)(F)F)cc13)CC2 [Compound 392]
pIC50: 6.00 to 7.00
//
Compound: CCN(c1nc(OC[C@@]23CCCN2C[C@H](F)C3)nc2c(F)c(-c3ccc(F)c4sc(N)c(C#N)c34)c(C(F)(F)F)cc12)[C@H]1CCN(C(=O)N(C)C)C1 (atropisomer, axis not shown) [Compound 540]
pIC50: ≥ 7.00
//
Compound: N#Cc1c(N)sc2c(F)ccc(-c3c(C(F)(F)F)cc4c(N5CCCOCC5)nc(OC[C@@]56CCCN5C[C@H](F)C6)nc4c3F)c12 [Compound 232]
pIC50: ≥ 7.00
//
Compound: N#Cc1c(N)sc2c(F)ccc(-c3c(C(F)(F)F)cc4c(N5CCn6nc(N7CCOCC7)cc6C5)nc(OC[C@@]56CCCN5C[C@H](F)C6)nc4c3F)c12 [Compound 485]
pIC50: ≥ 7.00
//
Compound: N#Cc1c(N)sc2c(F)ccc(-c3c(C(F)(F)F)cc4c(N5CC6CC5CO6)nc(OC[C@@]56CCCN5C[C@H](F)C6)nc4c3F)c12 (stereo partly drawn) [Compound 147]
pIC50: ≥ 7.00
//
Compound: CCN(c1nc(OC[C@@]23CCCN2C[C@H](F)C3)nc2c(F)c(-c3ccc(F)c4sc(N)c(C#N)c34)c(C(F)(F)F)cc12)[C@H]1C[C@H](C)N(C(=O)N2CC(OC)C2)C1 (atropisomer, axis not shown) [Compound 764]
pIC50: ≥ 7.00
//
Compound: CCN(c1nc(OC[C@@]23CCCN2C[C@H](F)C3)nc2c(F)c(-c3ccc(F)c4sc(N)c(C#N)c34)c(C(F)(F)F)cc12)[C@H]1C[C@H](C)N(C(=O)C2CC2)C1 [Compound 470]
pIC50: ≥ 7.00

* * *

# Subject of test: Avi-KRAS G12D (2-169) GTP/RAF1 RBD-3xFLAG (51-131) (Homo sapiens, UniProt P01116, G12D)
# Construct: Avi-KRAS G12D (2-169)
# Sequence (P01116 2-169 isoform P01116-2 G12D): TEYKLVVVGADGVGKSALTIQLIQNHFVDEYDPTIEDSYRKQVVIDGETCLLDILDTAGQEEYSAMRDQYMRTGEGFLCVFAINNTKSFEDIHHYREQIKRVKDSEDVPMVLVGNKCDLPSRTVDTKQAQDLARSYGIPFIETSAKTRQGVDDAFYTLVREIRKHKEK
# Experimental details: Raf1-KRAS G12D-GTP disruption HTRF assay (Biological Example 3)
# Assay type: binding
# Stated conditions: KRAS G12D, GTP-loaded
pIC50: −log10 of the molar value.
Endpoint label: pIC50

Compound: CCN(c1nc(OC[C@@]23CCCN2C[C@H](F)C3)nc2c(F)c(-c3ccc(F)c4sc(N)c(C#N)c34)c(C(F)(F)F)cc12)[C@H]1C[C@@H]2COCC(=O)N2C1 (atropisomer, axis not shown)
Subject of test: Avi-KRAS G12D (2-169) GTP/RAF1 RBD-3xFLAG (51-131) (Homo sapiens, UniProt P01116, G12D)
Endpoint label: pIC50
Result: 6.00 to 7.00
//
Compound: CN(c1nc(OC[C@@]23CCCN2C[C@H](F)C3)nc2c(F)c(-c3ccc(F)c4sc(N)c(C#N)c34)c(C(F)(F)F)cc12)[C@H]1CC(=O)N2CCC[C@@H]12 (atropisomer, axis not shown)
Subject of test: Avi-KRAS G12D (2-169) GTP/RAF1 RBD-3xFLAG (51-131) (Homo sapiens, UniProt P01116, G12D)
Endpoint label: pIC50
Result: 6.00 to 7.00

* * *

# Subject of test: Avi-KRAS G12D (1-169) GppNHp/RAF1 RBD-3xFLAG (52-151) (Homo sapiens, UniProt P01116, G12D)
# Construct: Avi-KRAS G12D (1-169)
# Sequence (P01116 1-169 isoform P01116-2 G12D): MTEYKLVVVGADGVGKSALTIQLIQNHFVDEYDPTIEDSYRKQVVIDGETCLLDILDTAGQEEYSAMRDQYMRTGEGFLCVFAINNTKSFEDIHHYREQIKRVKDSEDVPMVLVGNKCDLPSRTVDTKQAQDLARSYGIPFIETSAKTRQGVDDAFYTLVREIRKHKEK
# Experimental details: Raf1-KRAS G12D-GppNHP disruption HTRF assay (Biological Example 1)
# Format: binding
# Stated conditions: KRAS G12D, GppNHp-loaded; class symbols
// reported IC50 per item

Compound: CN(C)C(=O)c1nn2c(c1C1CC1)CN(c1nc(OCC34CCCN3CC(F)C4)nc3c(F)c(-c4ccc(F)c5sc(N)c(C#N)c45)c(C(F)(F)F)cc13)CC2 (stereo not drawn)
IC50: 100 to 1000 nM
//
Compound: COC(=O)N1CC[C@H]2[C@@H]1CN2c1nc(OC[C@@]23CCCN2C[C@H](F)C3)nc2c(F)c(-c3ccc(F)c4sc(N)c(C#N)c34)c(C(F)(F)F)cc12 (atropisomer, axis not shown)
IC50: 1000 to 10000 nM
//
Compound: CCN(c1nc(OC[C@@]23CCCN2C[C@H](F)C3)nc2c(F)c(-c3ccc(F)c4sc(N)c(C#N)c34)c(C(F)(F)F)cc12)[C@H]1C[C@@H]2CCOC(=O)N2C1 (atropisomer, axis not shown)
IC50: 100 to 1000 nM
//
Compound: CCN(c1nc(OC[C@H]2C[C@@H](OC)CN2C)nc2c(F)c(-c3ccc(F)c4sc(N)c(C#N)c34)c(C(F)(F)F)cc12)[C@H]1CCN(C(=O)C(C)C)C1
IC50: 1000 to 10000 nM
//
Compound: CCN(c1nc(OC[C@@]23CCCN2C[C@H](F)C3)nc2c(F)c(-c3ccc(F)c4sc(N)c(C#N)c34)c(C(F)(F)F)cc12)[C@H]1CCN(C(=O)N(C)C(C)C)C1 (atropisomer, axis not shown)
IC50: < 100 nM
//
Compound: CCN(c1nc(OC[C@@]23CCCN2C[C@H](F)C3)nc2c(F)c(-c3ccc(F)c4sc(N)c(C#N)c34)c(C(F)(F)F)cc12)[C@H]1C[C@H](C)N(C(=O)[C@@H](C)OC)C1 (atropisomer, axis not shown) [Compound 747]
IC50: 100 to 1000 nM
//
Compound: CCN(c1nc(OC[C@@]23CCCN2C[C@H](F)C3)nc2c(F)c(-c3ccc(F)c4sc(N)c(C#N)c34)c(C(F)(F)F)cc12)[C@H]1CCN(C(=O)N2CC(OC(F)F)C2)C1 (atropisomer, axis not shown)
IC50: < 100 nM
//
Compound: N#Cc1c(N)sc2c(F)ccc(-c3c(C(F)(F)F)cc4c(N5CC6CC(C5)O6)nc(OC[C@]56C[C@@H](F)CN5CC5(CC5)C6)nc4c3F)c12
IC50: 1000 to 10000 nM
//
Compound: CCN(c1nc(OC[C@@]23CCCN2C[C@H](F)C3)nc2c(F)c(-c3ccc(F)c4sc(N)c(C#N)c34)c(C(F)(F)F)cc12)[C@@H]1CCN(C(=O)[C@H](C)OC)[C@@H]1C (atropisomer, axis not shown)
IC50: < 100 nM

* * *

# Subject of test: Avi-KRAS G12C (2-169) GTP/RAF1 RBD-3xFLAG (51-131) (Homo sapiens, UniProt P01116, G12C)
# Construct: Avi-KRAS G12C (2-169)
# Sequence (P01116 2-169 isoform P01116-2 G12C): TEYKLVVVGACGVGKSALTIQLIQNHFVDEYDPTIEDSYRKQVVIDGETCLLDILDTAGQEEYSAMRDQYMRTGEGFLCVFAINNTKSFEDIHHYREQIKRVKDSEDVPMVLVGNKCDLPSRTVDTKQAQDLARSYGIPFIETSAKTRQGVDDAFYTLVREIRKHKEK
# Experimental details: Raf1-KRAS G12C-GTP disruption HTRF assay (Biological Example 3)
# Type: binding
# Stated conditions: KRAS G12C, GTP-loaded
pIC50: −log10 of the molar value.
Reported pIC50 values for a set of molecules

Molecule: CCN(c1nc(OC[C@@]23CCCN2C[C@H](F)C3)nc2c(F)c(-c3ccc(F)c4sc(N)c(C#N)c34)c(C(F)(F)F)cc12)[C@H]1C[C@H]2CN(CC(F)F)C(=O)N2C1 (atropisomer, axis not shown) [Compound 940]
pIC50: 6.00 to 7.00

Molecule: CCN(c1nc(OC[C@@]23CCCN2C[C@H](F)C3)nc2c(F)c(-c3ccc(F)c4sc(N)c(C#N)c34)c(C(F)(F)F)cc12)[C@H]1CCN(C(=O)c2ncc(C#N)s2)C1 (atropisomer, axis not shown) [Compound 956]
pIC50: 6.00 to 7.00

Molecule: CCN(c1nc(OC[C@@]23CCCN2C[C@H](F)C3)nc2c(F)c(-c3ccc(F)c4sc(N)c(C#N)c34)c(C(F)(F)F)cc12)[C@H]1C[C@H](COC)N(C(=O)N2CC(OC)C2)C1 (atropisomer, axis not shown) [Compound 839]
pIC50: 6.00 to 7.00

Molecule: CCN(c1nc(OC[C@@H]2C[C@@H](OC)CN2C)nc2c(F)c(-c3ccc(F)c4sc(N)c(C#N)c34)c(C(F)(F)F)cc12)[C@H]1CCN(C(=O)C(C)C)C1 [Compound 706]
pIC50: 5.00 to 6.00

Molecule: CCN(c1nc(OC[C@@]23CCCN2C[C@H](F)C3)nc2c(F)c(-c3ccc(F)c4sc(N)c(C#N)c34)c(C(F)(F)F)cc12)[C@H]1C[C@H]2COC(=O)N2C1 (atropisomer, axis not shown; (aS)) [Compound 518]
pIC50: ≥ 7.00

Molecule: CCN(c1nc(OC[C@@]23CCCN2C[C@H](F)C3)nc2c(F)c(-c3ccc(F)c4sc(N)c(C#N)c34)c(C(F)(F)F)cc12)[C@@H]1CC[C@@H](C(=O)N(C)C)C1 (atropisomer, axis not shown) [Compound 827]
pIC50: 5.00 to 6.00

Molecule: Cc1c(C(=O)N2CCCC2)nn2c1CN(c1nc(OCC34CCCN3CC(F)C4)nc3c(F)c(-c4ccc(F)c5sc(N)c(C#N)c45)c(C(F)(F)F)cc13)CC2 (stereo not drawn) [Compound 744]
pIC50: 6.00 to 7.00

Molecule: CCN(c1nc(OC[C@@]23CCCN2C[C@H](F)C3)nc2c(F)c(-c3ccc(F)c4sc(N)c(C#N)c34)c(C(F)(F)F)cc12)[C@H]1C[C@H](C)N(C(=O)C2CC2(F)F)C1 (stereo partly drawn) [Compound 881]
pIC50: 6.00 to 7.00

Molecule: CCN(c1nc(OC[C@@]23CCCN2C[C@H](F)C3)nc2c(F)c(-c3ccc(F)c4sc(N)c(C#N)c34)c(C(F)(F)F)cc12)[C@H]1C[C@H]2CN(C3CCC3)C(=O)N2[C@@H]1C (atropisomer, axis not shown) [Compound 970]
pIC50: 6.00 to 7.00

Values were extracted from patent US20260042764A1.
